- Test system: HFF
- assay.explanation: The compound was tested for cytotoxicity against human foreskin fibroblast cell
- Type: functional, cell-based
pIC50: −log10 of the molar value.
pIC50: recorded values

Example cases with answers are listed next.
Nc1nc(N)c2ccn(COCCO)c2n1 : < 4.00
Nc1nc(Cl)nc2c1ccn2COCCO : < 4.00

Given the entry CC(=O)Nc1nc(Cl)c2ccn(COCCO)c2n1 , report its measured pIC50.
< 4.00

Record request: pIC50 value, item Nc1nc(O)nc2c1ccn2COCCO
< 4.00

I have this molecule here, COc1nc(N)c2ccn(COCCO)c2n1 , and I need its recorded pIC50.
< 4.00

Given the entry CSc1nc(Cl)c2ccn(COCCO)c2n1 , report its measured pIC50.
4.52

Look at this molecule and give its reported pIC50. CC(=O)OCCOCn1ccc2c(Cl)nc(Cl)nc21
4.00

# get_value(readout='pIC50', item= CSc1nc(Cl)c2ccn(COCCOC(C)=O)c2n1 )
4.00

What measured pIC50 goes with Nc1ncnc2c1ccn2COCCO ?
< 4.00

Give its pIC50 value. Item: OCCOCn1ccc2c(Cl)nc(Cl)nc21
4.00

Item under review: Nc1nc2c(ncn2COCCO)c(=O)[nH]1 [ACYCLOVIR] . Reported pIC50?
< 4.00

====

- System: HFF
- assay.explanation: The compound was tested for cytotoxicity against human foreskin fibroblast cell
- Format: functional, cell-based
pIC50: −log10 of the molar value.
metric: pIC50

Here are 2 compounds together with their reported answers.
CS(=O)(=O)c1nc(N)c2ccn(COCCO)c2n1 : < 4.00
Nc1nc2c(ncn2COC(CO)CO)c(=O)[nH]1 : < 4.00

Which value of pIC50 has been reported for CSc1nc(N)c2ccn(COCCO)c2n1 in the records?
< 4.00
